Exercise: for every item that follows, state its recorded residual activity.
target: TTK (human); assay: radiometric filter-binding kinase assay, Kinase HotSpot; settings: compound 0.5 µM; ATP 10 µM
Answer in %, number only, no unit symbol.

State its residual activity: COc1cccc(-c2cc(=O)c3ccccc3o2)c1N
99

Answer with reported residual activity of COc1cc2c(N3CCN(C(=O)Nc4ccc(OC(C)C)cc4)CC3)ncnc2cc1OCCCN1CCCCC1
100

Answer with reported residual activity of O=c1c2ccccc2[nH]c(=S)n1CCN1CCC(=C(c2ccc(F)cc2)c2ccc(F)cc2)CC1
96.3

Complete the entry with residual activity for COc1cc2c(cc1OC)-c1[nH]nc(Nc3cccc(F)c3)c1C2
84.1

Using the record for FC(F)(F)c1ccc(/C=C/c2nc(COc3ccc(CCCCn4ccnn4)cc3)co2)cc1 , state its measured residual activity.
111

Look up and state reported residual activity for CCCCc1c(-c2ccc(O)cc2)[nH]c2nccnc12
91.6

Give recorded residual activity. Nc1ncnc2c1cnn2-c1ccccc1
90.6

Identify measured residual activity associated with N#C/C(=C1/Nc2ccccc2S1)c1ccnc(NCCc2cccnc2)n1
80.9

Note residual activity for the compound shown: N/C(=N\N=C/c1ccc(-c2cccc([N+](=O)[O-])c2)o1)N[N+](=O)[O-]
95.9

Give residual activity for c1ccc(-c2cnc(Nc3ccc(OCCN4CCCC4)cc3)s2)cc1
102

###

So I've got a bunch of compounds here, and I need their residual activity values.
molecular target: HIPK2 (human); test: radiometric filter-binding kinase assay, Kinase HotSpot; details: compound 0.5 µM; ATP 10 µM
All answers are understood in %, so give the number only.

Answer with the recorded residual activity for the compound listed here: O=C1NC(=O)c2c1c1c3ccccc3[nH]c1c1[nH]c3cc(Br)ccc3c21
107

Report residual activity for COc1cccc(-c2cc(=O)c3ccccc3o2)c1N
116

Provide only the value of recorded residual activity for Cc1cc(Nc2nc(-c3ccccc3)nc3ccccc23)n[nH]1
101

###

molecular target: CAMK2B (human); test: radiometric filter-binding kinase assay, Kinase HotSpot; settings: compound 0.5 µM; ATP 10 µM
MEASURED_METRIC: residual activity (%)
Write the number in % without appending the unit.

Quote CAMK2B (human) residual activity for entry CCOc1cc2ncnc(Nc3cccc(Br)c3)c2cc1OCC .
98.8

Answer with residual activity of O=C(O)c1ccc2c3c1cccc3c(=O)n1c3ccccc3nc21 measured for CAMK2B (human).
92.6

# return residual activity of N#C/C(=C1/Nc2ccccc2S1)c1ccnc(NCCc2cccnc2)n1 (system: CAMK2B (human))
97.3

Jot down residual activity (CAMK2B (human)) of O=C(c1ccccc1)c1ccc(N2CCOCC2)cc1O .
105

Look up and report residual activity, with CAMK2B (human) as system, for O=c1c2ccccc2[nH]c(=S)n1CCN1CCC(=C(c2ccc(F)cc2)c2ccc(F)cc2)CC1
102

# lookup: CAMK2B (human) residual activity, key = CCCCc1c(-c2ccc(O)cc2)[nH]c2nccnc12
97

Jot down residual activity (CAMK2B (human)) of O=S(=O)(NCCNC/C=C/c1ccc(Br)cc1)c1cccc2cnccc12 .
93.3

Report residual activity from CAMK2B (human) testing of COc1cc2c(cc1OC)-c1[nH]nc(Nc3cccc(F)c3)c1C2
101

Provide CAMK2B (human) residual activity reading for COc1cccc(-c2cc(=O)c3ccccc3o2)c1N .
103

Report measured residual activity on CAMK2B (human); entry: O=c1cc(N2CCOCC2)oc2c(-c3ccccc3)cccc12
110

Enter recorded residual activity with CAMK2B (human) for N#Cc1c(NC(=O)c2cccc3ccccc23)sc2c1CCCC2 here.
101

Provide residual activity, system CAMK2B (human), entry Cn1cc(/C=C2\C(=O)Nc3ccc(S(N)(=O)=O)cc32)c2ccccc21
86.5

Would you please give the reported residual activity of FC(F)(F)c1ccc(/C=C/c2nc(COc3ccc(CCCCn4ccnn4)cc3)co2)cc1 with CAMK2B (human)?
99.3

State recorded residual activity with CAMK2B (human), entry Cc1cc(Nc2nc(-c3ccccc3)nc3ccccc23)n[nH]1 , no comment.
97.7

Write down the reported residual activity (system: CAMK2B (human)) of N#CCCc1ccc2c(c1)-c1[nH]c3ccc([N+](=O)[O-])cc3c1CC(=O)N2
99.3

Please indicate recorded residual activity of CN[C@@H]1C[C@H]2O[C@@](C)([C@@H]1OC)n1c3ccccc3c3c4c(c5c6ccccc6n2c5c31)C(=O)NC4 measured with CAMK2B (human).
1.64

Find residual activity for O=C1NC(=O)c2c1c1c3ccccc3[nH]c1c1[nH]c3cc(Br)ccc3c21 on CAMK2B (human) and write it down.
80.3

Look up and report measured residual activity (CAMK2B (human)) for the following compound: CCc1nc(-c2ccc(OC)cc2)[nH]c1-c1ccncc1
97.1

Fill in residual activity for COc1cc2c(Nc3ccc(Br)cc3F)ncnc2cc1OCC1CCN(C)CC1 tested with CAMK2B (human).
98.2

Give residual activity for N/C(=N\N=C/c1ccc(-c2cccc([N+](=O)[O-])c2)o1)N[N+](=O)[O-] tested on CAMK2B (human).
100

Consider the compound O=c1c(-c2ccc(F)cc2)c(-c2ccncc2)[nH]n1-c1ccc(Cl)cc1 tested on CAMK2B (human); state its residual activity.
93.7

Determine reported residual activity for COc1cc2c(N3CCN(C(=O)Nc4ccc(OC(C)C)cc4)CC3)ncnc2cc1OCCCN1CCCCC1 ; test system: CAMK2B (human).
99.9

Write down the reported residual activity (system: CAMK2B (human)) of O=C1NC(=O)c2cc(Nc3ccc(F)cc3)c(Nc3ccc(F)cc3)cc21
98.7

Enter measured residual activity, system CAMK2B (human), for the compound shown: COc1cc2ncnc(Nc3ccc(O)c(Br)c3)c2cc1OC
99.3

State, for CAMK2B (human), measured residual activity of the compound listed here: Nc1ncnc2c1cnn2-c1ccccc1
97.8

Provide residual activity, system CAMK2B (human), entry c1ccc(-c2cnc(Nc3ccc(OCCN4CCCC4)cc3)s2)cc1
84.2

Would you please give the reported residual activity of O=c1[nH]c2ccccc2n1C1CCN(Cc2ccc(-c3nc4cc5[nH]cnc5cc4nc3-c3ccccc3)cc2)CC1 with CAMK2B (human)?
104

###

target: SLK (human) (UniProt Q9H2G2); assay: radiometric filter-binding kinase assay, Kinase HotSpot; conditions: compound 0.5 µM; ATP 10 µM
Sequence (Q9H2G2 whole entry, looked up): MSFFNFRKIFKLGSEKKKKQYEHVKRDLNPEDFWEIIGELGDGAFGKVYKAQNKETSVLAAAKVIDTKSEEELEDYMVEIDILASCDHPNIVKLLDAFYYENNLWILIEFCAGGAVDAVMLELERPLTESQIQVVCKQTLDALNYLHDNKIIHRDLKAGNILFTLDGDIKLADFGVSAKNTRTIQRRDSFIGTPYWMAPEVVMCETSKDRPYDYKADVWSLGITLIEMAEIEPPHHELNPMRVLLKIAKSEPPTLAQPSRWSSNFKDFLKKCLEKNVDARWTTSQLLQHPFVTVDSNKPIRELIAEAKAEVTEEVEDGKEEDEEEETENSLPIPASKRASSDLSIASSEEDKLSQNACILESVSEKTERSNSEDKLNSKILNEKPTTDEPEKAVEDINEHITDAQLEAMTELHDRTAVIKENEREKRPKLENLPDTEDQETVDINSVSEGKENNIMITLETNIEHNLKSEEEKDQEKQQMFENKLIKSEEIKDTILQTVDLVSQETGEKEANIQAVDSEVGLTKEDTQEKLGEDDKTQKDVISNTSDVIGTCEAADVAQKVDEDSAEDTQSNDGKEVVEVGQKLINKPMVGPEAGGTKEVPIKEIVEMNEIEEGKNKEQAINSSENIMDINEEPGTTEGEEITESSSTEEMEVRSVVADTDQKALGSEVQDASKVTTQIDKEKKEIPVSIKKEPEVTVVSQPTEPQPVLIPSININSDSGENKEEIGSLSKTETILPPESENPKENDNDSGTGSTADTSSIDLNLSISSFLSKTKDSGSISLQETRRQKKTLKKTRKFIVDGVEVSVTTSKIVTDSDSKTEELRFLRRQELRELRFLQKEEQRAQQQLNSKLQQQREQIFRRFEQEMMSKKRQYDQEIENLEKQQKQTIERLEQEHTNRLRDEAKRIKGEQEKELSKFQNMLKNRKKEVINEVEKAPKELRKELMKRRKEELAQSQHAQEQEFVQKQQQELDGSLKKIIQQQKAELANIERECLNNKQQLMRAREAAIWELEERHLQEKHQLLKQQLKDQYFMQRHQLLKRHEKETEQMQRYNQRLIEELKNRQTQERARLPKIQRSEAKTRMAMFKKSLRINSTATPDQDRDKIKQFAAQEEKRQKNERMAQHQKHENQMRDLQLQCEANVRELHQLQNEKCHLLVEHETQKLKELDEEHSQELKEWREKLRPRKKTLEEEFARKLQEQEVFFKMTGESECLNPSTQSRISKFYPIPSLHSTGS
MEASURED_METRIC: residual activity (%)
// return numeric value only (unit: %, not printed)

Recall the reported residual activity of CCc1nc(-c2ccc(OC)cc2)[nH]c1-c1ccncc1 when tested on SLK (human) (UniProt Q9H2G2).
99.7

Report value only: residual activity, SLK (human) (UniProt Q9H2G2), N#C/C(=C1/Nc2ccccc2S1)c1ccnc(NCCc2cccnc2)n1
87.7

Fill in residual activity for COc1cc2c(cc1OC)-c1[nH]nc(Nc3cccc(F)c3)c1C2 tested with SLK (human) (UniProt Q9H2G2).
95.4

# lookup: SLK (human) (UniProt Q9H2G2) residual activity, key = O=c1c(-c2ccc(F)cc2)c(-c2ccncc2)[nH]n1-c1ccc(Cl)cc1
98.2

Give residual activity; test system SLK (human) (UniProt Q9H2G2); compound O=c1[nH]c2ccccc2n1C1CCN(Cc2ccc(-c3nc4cc5[nH]cnc5cc4nc3-c3ccccc3)cc2)CC1
97.7

Fill: residual activity (SLK (human) (UniProt Q9H2G2)) for this compound CCCCc1c(-c2ccc(O)cc2)[nH]c2nccnc12
77.3

Print SLK (human) (UniProt Q9H2G2) residual activity for Cn1cc(/C=C2\C(=O)Nc3ccc(S(N)(=O)=O)cc32)c2ccccc21 .
28.6

Give measured residual activity for Cc1cc(Nc2nc(-c3ccccc3)nc3ccccc23)n[nH]1 (SLK (human) (UniProt Q9H2G2)).
42.2

Send back SLK (human) (UniProt Q9H2G2) residual activity of N#CCCc1ccc2c(c1)-c1[nH]c3ccc([N+](=O)[O-])cc3c1CC(=O)N2 only.
87.2

Would you please give the reported residual activity of c1ccc(-c2cnc(Nc3ccc(OCCN4CCCC4)cc3)s2)cc1 with SLK (human) (UniProt Q9H2G2)?
96.7

# lookup: SLK (human) (UniProt Q9H2G2) residual activity, key = N/C(=N\N=C/c1ccc(-c2cccc([N+](=O)[O-])c2)o1)N[N+](=O)[O-]
101

Lab note: record residual activity of N#Cc1c(NC(=O)c2cccc3ccccc23)sc2c1CCCC2 tested on SLK (human) (UniProt Q9H2G2).
99.2

Write down measured residual activity (SLK (human) (UniProt Q9H2G2)) for this compound. COc1cc2ncnc(Nc3ccc(O)c(Br)c3)c2cc1OC
50.3

GET residual activity where system = SLK (human) (UniProt Q9H2G2) and item = FC(F)(F)c1ccc(/C=C/c2nc(COc3ccc(CCCCn4ccnn4)cc3)co2)cc1
92.8

Enter recorded residual activity with SLK (human) (UniProt Q9H2G2) for O=S(=O)(NCCNC/C=C/c1ccc(Br)cc1)c1cccc2cnccc12 here.
93

State the measured residual activity (SLK (human) (UniProt Q9H2G2)) of COc1cc2c(Nc3ccc(Br)cc3F)ncnc2cc1OCC1CCN(C)CC1
73.9

Report measured residual activity on SLK (human) (UniProt Q9H2G2); entry: CCOc1cc2ncnc(Nc3cccc(Br)c3)c2cc1OCC
64.8

State residual activity (SLK (human) (UniProt Q9H2G2)) of O=C1NC(=O)c2c1c1c3ccccc3[nH]c1c1[nH]c3cc(Br)ccc3c21 .
90.9

Give measured residual activity for O=c1cc(N2CCOCC2)oc2c(-c3ccccc3)cccc12 (SLK (human) (UniProt Q9H2G2)).
102

Give residual activity only, for O=C(O)c1ccc2c3c1cccc3c(=O)n1c3ccccc3nc21 , using SLK (human) (UniProt Q9H2G2) data.
94.1

Recall the reported residual activity of O=C(c1ccccc1)c1ccc(N2CCOCC2)cc1O when tested on SLK (human) (UniProt Q9H2G2).
106
